Cited source for all entries: the supplement of paper PMC8728848

Assign glycan array binding signal (z-score) to each entry below.
target: GalNAc(a1-3)GalNAc; experiment: glycan array binding signal (z-score within array); higher = stronger binding; conditions: glycan notation: IUPAC condensed, linker removed
About 410 targets per protein were measured; listed, in parts, are those with the strongest signals and a random draw of the rest.
One number for each entry.

Past entries and their recorded results:
binder	glycan array binding signal (z-score)
MGL (Homo sapiens), Q8IUN9 (protein) MTRTYENFQYLENKVKVQGFKNGPLPLQSLLQRLCSGPCHLLLSLGLGLLLLVIICVVGFQNSKFQRDLVTLRTDFSNFTSNTVAEIQALTSQGSSLEETIASLKAEVEGFKQERQAGVSELQEHTTQKAHLGHCPHCPSVCVPVHSEMLLRVQQLVQDLKKLTCQVATLNNNASTEGTCCPVNWVEHQDSCYWFSHSGMSWAEAEKYCQLKNAHLVVINSREEQNFVQKYLGSAYTWMGLSDPEGAWKWVDGTDYATGFQNWKPGQPDDWQGHGLGGGEDCAHFHPDGRWNDDVCQRPYHWVCEAGLGQTSQESH	0.346
MCL (Mus musculus), Q9Z2H6 (protein) MWLEESQMKSKGTRHPQLIPCVFAVVSISFLSACFISTCLVTHHYFLRWTRGSVVKLSDYHTRVTCIREEPQPGATGGTWTCCPVSWRAFQSNCYFPLNDNQTWHESERNCSGMSSHLVTINTEAEQNFVTQLLDKRFSYFLGLADENVEGQWQWVDKTPFNPHTVFWEKGESNDFMEEDCVVLVHVHEKWVWNDFPCHFEVRRICKLPGITFNWKPSK	-0.708

// field: glycan array binding signal (z-score); key: EULS2 M4 (Oryza sativa) (protein) MVYCRANPNYAMTARNGAVVLAPANPKDEYQHWIKDMRWSTSIKDEEGYPAFALVNKATGQAIKHSLGQSHPVRLVPYNPEVMDESVLWTESRDVGNGFRCIRMVNNIYLNFDAFHGDKYHGGVRDGTDIVLWKWCEGDSLRWKIQPYYILEQKLISEEDLNSAVDHHHHHH ; value = -0.218
